# System: BDF1 mice, Lewis lung carcinoma iv, survival T/C
# test.description: NCI In Vivo Anticancer Drug Screen. Data for tumor model Lewis Lung Carcinoma (intravenous) in B6D2F1 (BDF1) mice
# setup.conditions: endpoint: median survival time; dose: 200.0 mg/kg/injection; schedule: Q01DX009 (ip); vehicle: Klucel (hydroxypropylcellulose) (HPC); higher = longer survival
# Protocol: The antitumor activity of compounds was measured in mice bearing transplantable tumors. Survival or tumor size were measured and the results are expressed as the measurement made in the treated group (T) divided by the measurement made in the vehicle treated control group (C). The tumor model used in this assay is Lewis Lung Carcinoma (intravenous) in B6D2F1 (BDF1) mice
Toxic doses and inconclusive results are not listed.
observed.property: T/C

Request the reported T/C associated with O=C1CC2(C(=O)N1CN1CCOCC1)c1ccccc1-c1ccccc12
101 % of control

Record: CC(C)(C)C1CCCCC1
95 % of control

Record: CC1CCC(n2cnc3c(Cl)ncnc32)O1 (stereo not given)
96 % of control

Record: COc1ccc2ccccc2c1C1NC(=O)c2ccccc2N1 (stereo not given)
98 % of control

---
Request the reported T/C associated with CN(C)c1ccc2c(SCC(=O)OCC(=O)[C@@]3(O)CC[C@H]4[C@@H]5CCC6=CC(=O)C=C[C@]6(C)[C@H]5C(=O)C[C@@]43C)c3ccc(N(C)C)cc3nc2c1
102 % of control
